endpoint-name: Ki (nM)
Unit nM implied. Number only.

q: Write down the reported Ki of `CN1CCN2c3nccc(CCC(F)(F)F)c3CC[C@@H]2C1` , test system: 5-HT2B receptor (Homo sapiens (Human)).
Sequence (P41595 whole entry): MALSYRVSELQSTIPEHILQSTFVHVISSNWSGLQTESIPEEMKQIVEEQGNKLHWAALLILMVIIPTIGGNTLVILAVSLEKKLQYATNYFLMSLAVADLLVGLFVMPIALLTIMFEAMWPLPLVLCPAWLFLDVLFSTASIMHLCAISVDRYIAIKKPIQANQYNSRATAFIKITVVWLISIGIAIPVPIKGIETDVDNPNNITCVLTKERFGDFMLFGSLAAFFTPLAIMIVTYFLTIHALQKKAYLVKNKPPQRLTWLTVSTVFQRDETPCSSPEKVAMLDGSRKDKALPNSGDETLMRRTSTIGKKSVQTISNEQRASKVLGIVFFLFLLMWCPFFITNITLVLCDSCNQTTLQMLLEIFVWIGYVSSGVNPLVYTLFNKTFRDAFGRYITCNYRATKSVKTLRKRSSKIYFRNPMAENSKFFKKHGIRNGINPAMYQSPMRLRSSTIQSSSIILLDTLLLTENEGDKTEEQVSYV
a: 331

q: # get_value(readout= Ki, system= 5-HT2B receptor (Homo sapiens (Human))) for `c1ccc(Cc2cncc3c2CC[C@@H]2CNCCN32)cc1`
a: 270

q: Lab request: please report Ki under test system 5-HT2B receptor (Homo sapiens (Human)) for `CSc1nc(Cl)c2c(n1)N1CCCNC[C@H]1CC2`
a: 272

q: Ki of `Clc1ccc(-c2ccnc3c2CC[C@@H]2CNCCN32)nc1` on 5-HT2B receptor (Homo sapiens (Human))?
a: 1020

q: Notebook: pull reported Ki for 5-HT2B receptor (Homo sapiens (Human)), entry `FC(F)(F)CCc1ccnc2c1CC[C@@H]1CNCCCN21`
a: 721

q: Give recorded Ki with 5-HT2B receptor (Homo sapiens (Human)) for the following compound: `c1cc(COCC2CCOCC2)c2c(n1)N1CCNC[C@H]1CC2`
a: 844

q: Param readout = Ki; param system = 5-HT2B receptor (Homo sapiens (Human)); param query = `c1ncc2c(c1CC1CCCCC1)CC[C@@H]1CNCCN21` ; response: value
a: 140

q: Query for 5-HT2B receptor (Homo sapiens (Human)): what Ki does the record show for `N#CCCc1ccnc2c1CC[C@@H]1CNCCN21` ?
a: 665

q: Param readout= Ki; system= 5-HT2B receptor (Homo sapiens (Human)); entry= `CC(C)OCc1ccnc2c1CC[C@@H]1CNCCN21` ; returns value.
a: 209

q: Kindly state the measured Ki obtained for `Brc1cncc2c1CC[C@@H]1CNCCN21` with 5-HT2B receptor (Homo sapiens (Human)).
a: 13

---

Assign pKi to each entry below.
target: 5-HT2A receptor (Homo sapiens (Human))
protocol: DOI radioligand binding assay, 5-HT2A
assay-setup: [125I]DOI competition, HEK293 cell membranes; read-out: DOI Binding 5HT2A
Field pKi (float): negative decimal logarithm of the concentration in molar.

q: Any idea what its pKi is? The compound is CCCCc1ccnc2c1CC[C@@H]1CNCCN21 [Compound 112]
a: 7.97

q: # get_value(readout='pKi', item= FC(F)(F)CCc1ccnc2c1CC[C@@H]1CNCCCN21 [Compound 157] )
a: 5.94

q: Entry CN1CCN2c3nccc(CCC(F)(F)F)c3CC[C@@H]2C1 [Compound 168] : reported pKi = ?
a: 7.24

q: # get_value(readout='pKi', item= CCc1c(C2CCC2)cnc2c1CC[C@@H]1CNCCN21 [Compound 166] )
a: 6.02

q: Fill in the blank: the reported pKi of CCc1c(CC2CCCCO2)cnc2c1CC[C@@H]1CNCCN21 (some centres unmarked) [Compound 165] is ____.
a: 6.05

---

target: 5-HT2C receptor (Homo sapiens (Human))
protocol: DOI radioligand binding assay, 5-HT2C
So basically, if Ki comes in under 0.6 nM it's true, and if it's 0.6 nM or more it's false.

q: Ki under 0.6 nM? Item: CCc1ccnc2c1CC[C@@H]1CNCCN21 [Compound 110]
a: true

q: I'd appreciate it if you could check whether CCCCc1ccnc2c1CC[C@@H]1CNCCN21 [Compound 112] has Ki smaller than 0.6 nM.
a: true

q: Is Ki of Fc1cccc(Cc2ccnc3c2CC[C@@H]2CNCCN32)c1 [Compound 115] strictly below 0.6 nM?
a: true

q: Report whether reported Ki is lower than 0.6 nM (strictly) for CCCCCc1ccnc2c1CC[C@@H]1CNCCN21 [Compound 108]
a: true

q: Take the compound CCCc1ccnc2c1CC[C@@H]1CNCCN21 [Compound 113] and say whether its Ki is less than 0.6 nM.
a: true

q: Answer whether the compound Fc1ccccc1Cc1ccnc2c1CC[C@@H]1CNCCN21 [Compound 116] has Ki strictly less than 0.6 nM
a: true

q: API: query returns whether the compound falls strictly under 0.6 nM in Ki. Query: c1cc(CC2CCCC2)c2c(n1)N1CCNC[C@H]1CC2 [Compound 170]
a: false

q: Here's an entry: c1ccc(Cc2ccnc3c2CC[C@@H]2CNCCN32)cc1 [Compound 106] . Is its Ki below 0.6 nM?
a: true

q: Strictly below 0.6 nM in Ki? C/C=C/Cc1ccnc2c1CC[C@@H]1CNCCN21 [Compound 144]
a: true

q: Is it true that Ki reported for c1ccc(Cc2cncc3c2CC[C@@H]2CNCCN32)cc1 [Compound 175] is less than 0.6 nM?
a: true

q: Strictly below 0.6 nM in Ki? CC(C)c1ccnc2c1CC[C@@H]1CNCCN21 [Compound 111]
a: false

---

target: 5-HT2A receptor (Homo sapiens (Human))
protocol: DOI radioligand binding assay, 5-HT2A
endpoint-name: Ki (nM)
Write the number in nM without appending the unit.

q: Fill in: Ki of `Fc1cccc(Cc2ccnc3c2CC[C@@H]2CNCCN32)c1` is ___
a: 0.506

---

target: 5-HT2C receptor (Homo sapiens (Human), UniProt P28335)
Sequence (P28335 33-458): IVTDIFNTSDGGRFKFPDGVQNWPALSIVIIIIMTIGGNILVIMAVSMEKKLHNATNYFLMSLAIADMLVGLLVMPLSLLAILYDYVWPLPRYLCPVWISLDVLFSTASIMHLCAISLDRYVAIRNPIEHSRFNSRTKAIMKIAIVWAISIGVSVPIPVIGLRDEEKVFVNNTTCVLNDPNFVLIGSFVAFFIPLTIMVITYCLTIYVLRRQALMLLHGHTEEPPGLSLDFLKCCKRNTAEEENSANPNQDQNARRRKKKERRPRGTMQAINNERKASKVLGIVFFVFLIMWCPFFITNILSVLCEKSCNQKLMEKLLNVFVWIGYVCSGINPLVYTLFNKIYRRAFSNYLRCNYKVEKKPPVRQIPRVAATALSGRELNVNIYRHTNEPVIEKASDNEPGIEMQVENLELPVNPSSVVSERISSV
protocol: IP accumulation assay, 5-HT2C
Type: cell-based
What EC50 was measured for each of the following?
Express it in nM; write the number only.

q: What measured EC50 goes with `c1cc(C2CC2)c2c(n1)N1CCNC[C@H]1CC2` ?
a: 6.22

q: Quick one: EC50 of `Clc1ccnc2c1CC[C@@H]1CNCCN21` ?
a: 5.19

q: Value lookup for EC50; key = `Fc1ccccc1Cc1ccnc2c1CC[C@@H]1CNCCN21`
a: 0.314

q: What measured EC50 goes with `CCCc1ccnc2c1CC[C@@H]1CNCCN21` ?
a: 0.0656

q: Any idea what EC50 was measured for `c1cc2c(c(CC3CCC3)n1)CC[C@@H]1CNCCN21` ?
a: 5580

q: Given `CC(C)Cc1ccnc2c1CC[C@@H]1CNCCN21` , state its recorded EC50.
a: 0.424

q: I am curious: what EC50 value has been reported for `c1cc2c(cn1)CC[C@@H]1CNCCN21` ?
a: 100000

q: Which EC50 reading was recorded for the compound `c1ccc(Cc2cncc3c2CC[C@@H]2CNCCN32)cc1` ?
a: 0.622

---

Give EC50 for every item shown.
target: 5-HT2A receptor (Homo sapiens (Human), UniProt P28223)
Sequence (P28223 whole entry): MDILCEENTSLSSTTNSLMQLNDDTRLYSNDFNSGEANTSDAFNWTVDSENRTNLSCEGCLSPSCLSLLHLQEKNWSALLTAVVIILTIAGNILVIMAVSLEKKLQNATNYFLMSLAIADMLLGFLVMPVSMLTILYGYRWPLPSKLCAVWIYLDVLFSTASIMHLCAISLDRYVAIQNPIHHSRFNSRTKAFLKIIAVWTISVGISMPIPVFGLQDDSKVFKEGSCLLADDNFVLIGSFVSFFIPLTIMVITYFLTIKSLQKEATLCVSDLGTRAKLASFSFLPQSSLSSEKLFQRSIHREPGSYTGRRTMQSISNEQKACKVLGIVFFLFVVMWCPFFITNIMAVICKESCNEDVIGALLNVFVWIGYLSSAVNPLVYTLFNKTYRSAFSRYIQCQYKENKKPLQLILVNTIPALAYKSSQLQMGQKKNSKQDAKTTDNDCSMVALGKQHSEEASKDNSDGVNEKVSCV
protocol: IP accumulation assay, 5-HT2A
Type: cell-based

q: For the compound shown here, `O=C(Nc1ccnc2c1CC[C@@H]1CNCCN21)N1CCCC1` , give the reported EC50.
a: ≥ 100 µM

q: Requested read-out: EC50. Entry: `O=C(Nc1ccnc2c1CC[C@@H]1CNCCN21)c1ccccc1Cl`
a: ≥ 100 µM

q: Looking for the measured EC50 of `c1cc(C2CCCCC2)c2c(n1)N1CCNC[C@H]1CC2` , can you help?
a: 9.07 µM

q: Any idea what its EC50 is? The compound is `FC(F)(F)c1ccccc1-c1ccnc2c1CC[C@@H]1CNCCN21`
a: ≥ 100 µM

q: Name the reported EC50 value associated with the compound `Clc1ccnc2c1CC[C@@H]1CNCCN21`
a: 1.33 µM

q: I am curious: what EC50 value has been reported for `c1cc2c(cn1)CC[C@@H]1CNCCN21` ?
a: ≥ 100 µM

q: Requested read-out: EC50. Entry: `Fc1ccccc1Cc1ccnc2c1CC[C@@H]1CNCCN21`
a: 0.152 µM

q: For the compound `O=C(NCC(F)F)c1ccnc2c1CC[C@@H]1CNCCN21` , what EC50 is on record?
a: ≥ 100 µM

q: Entry `c1cc(-c2ccc3c(c2)OCO3)c2c(n1)N1CCNC[C@H]1CC2` has what EC50?
a: ≥ 100 µM

---

For each of the compounds below, state its pKi.
target: 5-HT2C receptor (Homo sapiens (Human), UniProt P28335)
protocol: DOI radioligand binding assay, 5-HT2C
assay-setup: read-out: DOI Binding 5HT2C
# log scale: pKi equals minus log10 of the concentration in mol/L

q: Observed pKi on 5-HT2C receptor (Homo sapiens (Human), UniProt P28335) for `c1cc(COCC2CCOCC2)c2c(n1)N1CCNC[C@H]1CC2` , please.
a: 5.90

q: Return pKi measured with 5-HT2C receptor (Homo sapiens (Human), UniProt P28335) given this compound: `CCc1c(CC2CCCCC2)cnc2c1CC[C@@H]1CNCCN21`
a: 6.63

q: Find the measured pKi: item `Clc1ccc(-c2ccnc3c2CC[C@@H]2CNCCN32)nc1` , target or system 5-HT2C receptor (Homo sapiens (Human), UniProt P28335).
a: 5.51

q: # returns recorded pKi (system: 5-HT2C receptor (Homo sapiens (Human), UniProt P28335)) for CCc1c(CC2CCCCO2)cnc2c1CC[C@@H]1CNCCN21 (stereo partly drawn)
a: 6.24

q: Lab request: please report pKi under test system 5-HT2C receptor (Homo sapiens (Human), UniProt P28335) for `Clc1ncnc2c1CC[C@@H]1CNCCCN21`
a: 5.25

q: Checklist item: pKi tested on 5-HT2C receptor (Homo sapiens (Human), UniProt P28335), entry `CSc1nc(Cl)c2c(n1)N1CCCNC[C@H]1CC2` , value?
a: 5.80
